# Tested on: HER2-negative MDA-MB-468
# procedure-summary: In vitro cell viability (CellTiter-Glo) of anti-HER2 ADCs in MDA-MB-468
# Assay type: cell-based
# conditions-used: Homo sapiens, MDA-MB-468, 120 h, Table 5; 120-hour assay
# Protocol: ADCs were evaluated using the following human cancer cell lines: HER2-positive SkBr-3, HER2-positive NCI-N87, and HER2-negative MDA-MB-468, purchased from the American Type Culture Collection (ATCC; Manassas, VA) and were routinely cultured in DMEM/F-12 medium (Catalog #[…]; Corning) supplemented with 10% fetal bovine serum (FBS; Catalog #MT35011CV; Corning) and 1× Penicillin-Streptomycin (Catalog #30-002-CI; Corning) and maintained at 37° C. with 5% CO2 in a humidified environment. […]
measurement-type: EC50 (nM)

>>> endpoint_value("CC[C@@]1(O)C(=O)OCc2c1cc1n(c2=O)Cc2c-1nc1cc(F)c(C)c3c1c2[C@@H](NC(=O)CO)CC3 [Dxd, reference compound]")
2.55
